Assignment: determine reported MIC Enterococcus faecalis (GC 2242) for the given molecules.
System: Enterococcus sp.
Experiment: in vitro antibacterial evaluation, MIC by broth dilution
Format: cell-based
Settings: broth dilution, 18 hours at 35° C.
Your answer should be a plain number; it is taken to be in µg/mL.

Query string: Report MIC Enterococcus faecalis (GC 2242) for CC(c1ccccc1)C1NC(=O)CNC(=O)C(CO)NC(=O)C(C(O)C2CNC(=N)N2C2OC(CO)C(O)C(O)C2O)NC(=O)C(C(O)C2CNC(=N)N2)NC(=O)C(Cc2ccc(OC3OC(CO)C(OC4OC5COC6(CC(C)(C)CC(C)(C)C6)OC5C(O)C4O)C(O)C3O)cc2)NC1=O (stereo not shown) [Example 207] please.
Result string: 4

Query string: MIC Enterococcus faecalis (GC 2242) for CC(c1ccccc1)C1NC(=O)CNC(=O)C(CO)NC(=O)C(CC2CN(Cc3ccccc3)C(=N)N2C2OC(CO)C(O)C(O)C2O)NC(=O)C(CC2CNC(=N)N2)NC(=O)C(Cc2ccc(OC3OC(CO)C(OC4OC5COC6(OC5C(O)C4O)C4CC5CC(C4)CC6C5)C(O)C3O)cc2)NC1=O (stereo not shown) [Example 80] ?
Result string: 32

Query string: Suppose we examine the molecule CCCCN1CC(C(O)C2NC(=O)C(C(O)C3CNC(=N)N3)NC(=O)C(Cc3ccc(OC4OC(CO)C(OC5OC6COC7(OC6C(O)C5O)C5CC6CC(C5)CC7C6)C(O)C4O)cc3)NC(=O)C(C(C)c3ccccc3)NC(=O)CNC(=O)C(CO)NC2=O)N(C2OC(CO)C(O)C(O)C2O)C1=N (stereo not shown) [Example 224] ; what MIC Enterococcus faecalis (GC 2242) value has been reported?
Result string: 4

Query string: Which MIC Enterococcus faecalis (GC 2242) reading was recorded for the molecule N=C1NCC(C(O)C2NC(=O)C(Cc3ccc(OC4OC(CO)C(OC5OC6COC(CCc7ccccc7)OC6C(O)C5O)C(O)C4O)cc3)NC(=O)C(CC3CCCCC3)NC(=O)CNC(=O)C(CO)NC(=O)C(C(O)C3CNC(=N)N3C3OC(CO)C(O)C(O)C3O)NC2=O)N1 (stereo not shown) [Example 198] ?
Result string: 1

Query string: // returns reported MIC Enterococcus faecalis (GC 2242) for input CCCCCCN=C1NCC(C(O)C2NC(=O)C(C(O)C3CNC(=N)N3)NC(=O)C(Cc3ccc(OC4OC(CO)C(OC5OC6COC7(OC6C(O)C5O)C5CC6CC(C5)CC7C6)C(O)C4O)cc3)NC(=O)C(C(C)c3ccccc3)NC(=O)CNC(=O)C(CO)NC2=O)N1C1OC(CO)C(O)C(O)C1O (stereo not shown) [Example 84]
Result string: 8

###

Tested on: Streptococcus sp.
Experiment: in vitro antibacterial evaluation, MIC by broth dilution
Assay type: cell-based
Details: broth dilution, 18 hours at 35° C.; strain GC 4563
Please respond with reported MIC Streptococcus pyogenes (GC 4563) for every item in the list.
Give the number; µg/mL is assumed, so skip it.

Query string: For the molecule shown here, CCCCCCCN1CC(C(O)C2NC(=O)C(C(O)C3CNC(=N)N3)NC(=O)C(Cc3ccc(OC4OC(CO)C(OC5OC6COC7(OC6C(O)C5O)C5CC6CC(C5)CC7C6)C(O)C4O)cc3)NC(=O)C(C(C)c3ccccc3)NC(=O)CNC(=O)C(CO)NC2=O)N(C2OC(CO)C(O)C(O)C2O)C1=N (centres unmarked) [Example 83] , give the reported MIC Streptococcus pyogenes (GC 4563).
Result string: 0.25

Query string: Need MIC Streptococcus pyogenes (GC 4563) of CC(c1ccccc1)C1NC(=O)CNC(=O)C(CO)NC(=O)C(C(O)C2CNC(=N)N2C2OC(CO)C(O)C(O)C2O)NC(=O)C(C(O)C2CNC(=N)N2)NC(=O)C(Cc2ccc(OC3OC(CO)C(OC4OC5COC(Cc6ccc(F)cc6)OC5C(O)C4O)C(O)C3O)cc2)NC1=O (centres unmarked) [Example 121] , thanks.
Result string: 0.25

Query string: Dear colleague, I am looking for the recorded MIC Streptococcus pyogenes (GC 4563) of the following molecule: CC(C)=CCCC(C)CC1OCC2OC(OC3C(CO)OC(Oc4ccc(CC5NC(=O)C(C(C)c6ccccc6)NC(=O)CNC(=O)C(CO)NC(=O)C(C(O)C6CNC(=N)N6C6OC(CO)C(O)C(O)C6O)NC(=O)C(C(O)C6CNC(=N)N6)NC5=O)cc4)C(O)C3O)C(O)C(O)C2O1 (centres unmarked) [Example 126]
Result string: 0.12

Query string: Consider the molecule shown here: CC(c1ccccc1)C1NC(=O)CNC(=O)C(CO)NC(=O)C(C(O)C2CN(Cc3ccc4ccccc4c3)C(=N)N2C2OC(CO)C(O)C(O)C2O)NC(=O)C(C(O)C2CNC(=N)N2)NC(=O)C(Cc2ccc(OC3OC(CO)C(OC4OC(CO)C(O)C(O)C4O)C(O)C3O)cc2)NC1=O (centres unmarked) [Example 67] What is its recorded MIC Streptococcus pyogenes (GC 4563)?
Result string: 128

Query string: Which MIC Streptococcus pyogenes (GC 4563) reading was recorded for the molecule CC(c1ccccc1)C1NC(=O)CNC(=O)C(CO)NC(=O)C(C(O)C2CNC(=N)N2C2OC(CO)C(O)C(O)C2O)NC(=O)C(C(O)C2CNC(=N)N2)NC(=O)C(Cc2ccc(OC3OC(CO)C(OC4OC5COC(C6CCCC6)OC5C(O)C4O)C(O)C3O)cc2)NC1=O (centres unmarked) [Example 117] ?
Result string: 0.25

Query string: Find the recorded MIC Streptococcus pyogenes (GC 4563) belonging to CC(c1ccccc1)C1NC(=O)CNC(=O)C(CO)NC(=O)C(C(O)C2CNC(=N)N2C2OC(CO)C(O)C(O)C2O)NC(=O)C(C(O)C2CNC(=N)N2)NC(=O)C(Cc2ccc(OC3OC(CO)C(OC4OC(CO)C(O)C5OC(c6ccccc6)OC45)C(O)C3O)cc2)NC1=O (single isomer, unassigned) [Example 104a] and report it.
Result string: 0.12

Query string: So what's the measured MIC Streptococcus pyogenes (GC 4563) for this one? CC(C)=CCCC1OCC2OC(OC3C(CO)OC(Oc4ccc(CC5NC(=O)C(C(C)c6ccccc6)NC(=O)CNC(=O)C(CO)NC(=O)C(C(O)C6CNC(=N)N6C6OC(CO)C(O)C(O)C6O)NC(=O)C(C(O)C6CNC(=N)N6)NC5=O)cc4)C(O)C3O)C(O)C(O)C2O1 (centres unmarked) [Example 123]
Result string: 0.5

Query string: Given CC(c1ccccc1)C1NC(=O)CNC(=O)C(CO)NC(=O)C(C(O)C2CNC(=N)N2C2OC(CO)C(O)C(O)C2O)NC(=O)C(C(O)C2CNC(=N)N2)NC(=O)C(Cc2ccc(OC3OC(CO)C(OC4OC(COC(=O)NCc5ccccc5)C(O)C(O)C4O)C(O)C3O)cc2)NC1=O (centres unmarked) [Example 257b] , state its recorded MIC Streptococcus pyogenes (GC 4563).
Result string: 0.12
